Listed next: entries and their corresponding pIC50.
- Tested on: M. tuberculosis H37Ra-lux
- test: microbe, parasite or virus in culture
- Format: cell-based, Mycobacterium tuberculosis
- condition: Mycobacterium tuberculosis, H37RA, 168 h, read-out: M. tuberculosis H37Ra-lux IC50
pIC50: −log10 of the molar value.

{"columns": ["compound string", "pIC50"],
 "data": [
  ["O=C(Nc1ccc(N2CCCN(C(=O)c3cnccn3)CC2)nc1)c1ccccc1", "< 4.19"],
  ["O=C(Nc1ccc(N2CCN(C(=O)c3cnccn3)CC2)nc1)c1cnccn1", "< 4.19"],
  ["O=C(Nc1ccc(N2CCN(C(=O)c3cnccn3)CC2)nc1)c1ccc(Br)cc1Cl", 5.87],
  ["O=C(Nc1ccc(N2CCN(C(=O)c3cnccn3)CC2)nc1)c1ccccc1I", "< 4.19"],
  ["O=C(Nc1ccc(N2CCN(C(=O)c3cnccn3)CC2)nc1)c1ccccc1", 5.84],
  ["O=C(Nc1ccc(N2CCN(C(=O)c3cnccn3)CC2)nc1)c1ccc(Cl)cc1Cl", "< 4.19"],
  ["O=C(Nc1ccc(N2CCCN(C(=O)c3cnccn3)CC2)nc1)c1ccccc1I", "< 4.19"],
  ["O=C(Nc1ccc(N2CCN(C(=O)c3cnccn3)CC2)nc1)c1ccncc1", "< 4.19"],
  ["O=C(Nc1ccc(N2CCN(C(=O)c3cnccn3)CC2)nc1)c1ccc(Br)cc1", 5.66]
]}

###

- System: Staphylococcus aureus
- test: Antibacterial screening against S. aureus
- Type: cell-based
- condition: read-out: S. aureus IC50

{"columns": ["compound", "unit of measurement", "IC50"],
 "data": [
  ["C[C@H]1c2cccc(O)c2C(O)=C2C(=O)[C@]3(O)C(O)=C(C(N)=O)C(=O)[C@@H](N(C)C)[C@@H]3[C@@H](O)[C@@H]21 [Doxycyclin, reference compound]", "nM", 90]
]}
